Can you tell me EC50 of tLTAg plasmid DNA for the items I'm about to list?
- ASSAYED_TARGET: T1, Merkel cell polyomavirus T antigen (common to large and small T antigen) peptide on HLA-A*02:01 (human)
- T1 peptide: KLLEIAPNC
- METHOD_NOTES: IFN-g ELISA; COS-7 given HLA-A*02:01 and tLTAg plasmids (antigen processed); T cell clone or line
Field format: number, assumed µg/mL, no unit text.

Reported EC50 of tLTAg plasmid DNA for w876 clonotype 4 (TCR) alpha TRAV12-1*01 TRAJ45*01 CDR3: CVVYTGYSGGGADGLTF beta TRBV10-2*01 TRBJ2-2*01 CDR3: CASSVLNTGELFF : what is it?
14

So what's the measured EC50 of tLTAg plasmid DNA for this one? w876 clonotype 29 (TCR) alpha TRAV12-1*01 TRAJ3*01 CDR3: CVVPLYSSASKIIF beta TRBV10-2*01 TRBJ2-2*01 CDR3: CASSVLNTGELFF
3.3

What value of EC50 of tLTAg plasmid DNA has been recorded for this entry: w876 clonotype 14 (TCR) alpha TRAV12-1*01 TRAJ27*01 CDR3: CVVPSAGKSTF beta TRBV2*03 TRBJ2-5*01 CDR3: CASSEFAGQETQYF
5.4

Request the reported EC50 of tLTAg plasmid DNA associated with w830 clonotype 2 (TCR) alpha TRAV38-1*01 TRAJ27*01 CDR3: CALTSGSRLTF beta TRBV19*01 TRBJ1-5*01 CDR3: CASSIMLYSNQPQHF
140

Endpoint output: EC50 of tLTAg plasmid DNA of w678 clonotype 1 (TCR) alpha TRAV12-1*01 TRAJ43*01 CDR3: CVLNNNDMRF beta TRBV10-3*01 TRBJ2-2*01 CDR3: CAIRQFDANTGELFF . Value?
0.32

Please give the measured EC50 of tLTAg plasmid DNA for this binder: w876 clonotype 1 (TCR) alpha TRAV12-1*01 TRAJ45*01 CDR3: CVVGEYSGGGADGLTF beta TRBV28*01 TRBJ2-1*01 CDR3: CAIRAGASYNEQFF
5.6

Would you kindly share the measured EC50 of tLTAg plasmid DNA for w876 clonotype 8 (TCR) alpha TRAV12-1*01 TRAJ3*01 CDR3: CVVYASKIIF beta TRBV6-1*01 TRBJ1-1*01 CDR3: CASSDTPDLNTEAFF ?
4.2

What value of measured EC50 of tLTAg plasmid DNA is listed for w678 clonotype 3 (TCR) alpha TRAV12-1*01 TRAJ45*01 CDR3: CVVATYSGGGADGLTF beta TRBV19*01 TRBJ2-1*01 CDR3: CASSIIAGSSYNEQFF ?
1

Request the reported EC50 of tLTAg plasmid DNA associated with w876 clonotype 13 (TCR) alpha TRAV12-1*01 TRAJ45*01 CDR3: CVVTDTSGGGADGLTF beta TRBV7-2*04 TRBJ2-3*01 CDR3: CASSLAGLAGTDTQYF
3.9

What value of measured EC50 of tLTAg plasmid DNA is listed for w876 clonotype 3 (TCR) alpha TRAV19*01 TRAJ40*01 CDR3: CALGGGTFTSGTYKYIF beta TRBV9*02 TRBJ2-2*01 CDR3: CASSVEDYTGELFF ?
11

Field request: EC50 of tLTAg plasmid DNA | item: w830 clonotype 3 (TCR) alpha TRAV38-1*01 TRAJ34*01 CDR3: CAYPSTDKLIF beta TRBV19*01 TRBJ1-5*01 CDR3: CASSILGASNQPQHF
270
